Biological target: C. jejuni flagella (Campylobacter jejuni)
Assay: ELISA dose response, purified VHH on immobilized Cj flagella, rabbit anti-VHH detection
In this section, each of the binders is paired with its reported Relative Bmax.
Just the number, please, no unit attached.

Examples from the recorded data:
Prompt line: Quick check: Relative Bmax of Flagella-ECF-1F4 (VHH) VHH: EVQLVESGGGLVQPGGSLRLSCEAAGSILRVNSMGWYRQAPGKQRDLVSIITSNNDAKYSDSVRGRFTISRDNAKNTVYLQMSSLKPDDTAVYYCNAYVETAGWIPTTHNLWGQGTQVTVSS ?
Response line: 2.5

Prompt line: Any idea what Relative Bmax was measured for Flagella-ECF-1G8 (VHH) VHH: EVQLVESGGGLVEAGGSLTLSCTTSEPTSLLNLMGWWRQGPGKEREFVASSNWSGKLVDYADGVEGRFTVIRNEDENAISLQMNSLTVEDTAIYYCAASRLGLPRSAQANQYWGQGTQVTVSS ?
Response line: 2.5

Prompt line: Quick check: Relative Bmax of Flagella-ECF-1D9 (VHH) VHH: EVQLVESGGGLVEPGGSLRLSCATSGFAFDNYCMYWVRQAPGKGLEWISGITNSGSFSYYADSVKGRFTISRDNAKNTLFLEMNSLTVDDTAVYYCAIHGHGCTWDSLRTTSGPRYRGQGTQVTVSS ?
Response line: 3

Prompt line: I'd like to know its Relative Bmax. The binder in question is Flagella-ECF-1B6 (VHH) VHH: EVQLVESGGGLVQSGGSLRLSCAASGRIFSITNMGWYRQAPGEQRELVADMPSGGSTNYADSVKGRFTISRDIAKNTVYLQMNSLKPEDTAVYYCNLKMSQPGWLVTNHNFWGQGTQVTVSS
Response line: 2.5

Next:
Prompt line: // query Relative Bmax value for entry Flagella-ECF-1C4 (VHH) VHH: EVQLVESGGGLVQAGGSLRVSCAASGRAVHNYALNWFRQAPGKAREFVSAISWTRRTYYANSVRGRFTISRDNNGNMVHLQMSNLKSEDTALYYCAAATTWPRLDGAEYWGQGTQVTVSS
Response line: 3
